Listed below: koff values for each entry.
target: T1, full-length recombinant human PAD4 (human, UniProt Q9UM07 1-663); experiment: SPR (Biacore T200), antibody captured, human PAD4 analyte
T1 construct: Full-length recombinant; also called peptidylarginine deiminase 4
T1 sequence (Q9UM07 whole entry): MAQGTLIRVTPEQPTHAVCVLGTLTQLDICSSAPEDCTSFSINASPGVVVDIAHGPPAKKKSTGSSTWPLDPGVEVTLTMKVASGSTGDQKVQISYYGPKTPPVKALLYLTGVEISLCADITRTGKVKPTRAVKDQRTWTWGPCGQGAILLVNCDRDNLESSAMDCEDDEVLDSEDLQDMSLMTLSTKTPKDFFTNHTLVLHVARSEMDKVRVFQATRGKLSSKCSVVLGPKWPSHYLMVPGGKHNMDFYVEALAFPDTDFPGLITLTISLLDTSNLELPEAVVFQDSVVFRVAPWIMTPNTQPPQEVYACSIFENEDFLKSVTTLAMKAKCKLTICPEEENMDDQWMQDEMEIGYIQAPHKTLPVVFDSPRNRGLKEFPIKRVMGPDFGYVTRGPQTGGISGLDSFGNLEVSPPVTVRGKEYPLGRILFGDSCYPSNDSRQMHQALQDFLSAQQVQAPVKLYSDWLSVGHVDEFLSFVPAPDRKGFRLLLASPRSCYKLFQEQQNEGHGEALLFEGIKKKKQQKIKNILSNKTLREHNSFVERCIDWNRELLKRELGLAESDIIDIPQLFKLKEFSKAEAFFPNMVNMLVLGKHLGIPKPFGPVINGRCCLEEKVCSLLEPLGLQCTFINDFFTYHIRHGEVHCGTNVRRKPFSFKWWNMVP
REPORTED ENDPOINT: koff (s⁻¹)

>>> observed("G9 (antibody, V domains shown, Chicken variable regions in a mouse chimeric antibody (IgG1); also called anti-PAD4 antibody G9) VH: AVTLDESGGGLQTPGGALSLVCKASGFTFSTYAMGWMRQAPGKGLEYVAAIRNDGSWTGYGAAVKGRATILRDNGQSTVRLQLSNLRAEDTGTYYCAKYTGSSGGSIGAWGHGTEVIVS VL: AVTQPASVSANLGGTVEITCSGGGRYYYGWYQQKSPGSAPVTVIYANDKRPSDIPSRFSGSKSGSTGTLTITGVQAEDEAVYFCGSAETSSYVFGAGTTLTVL")
0.000284
>>> observed("G6 (antibody, V domains shown, Chicken variable regions in a mouse chimeric antibody (IgG1); also called anti-PAD4 antibody G6) VH: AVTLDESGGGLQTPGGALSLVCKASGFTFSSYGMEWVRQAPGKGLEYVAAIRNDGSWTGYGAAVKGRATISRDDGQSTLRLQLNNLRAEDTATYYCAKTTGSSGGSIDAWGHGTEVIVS VL: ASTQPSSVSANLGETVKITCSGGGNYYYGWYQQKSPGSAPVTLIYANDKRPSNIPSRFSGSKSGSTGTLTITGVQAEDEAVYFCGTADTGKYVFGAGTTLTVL")
0.000389
>>> observed("E9 (antibody, V domains shown, Chicken variable regions in a mouse chimeric antibody (IgG1); also called anti-PAD4 antibody E9) VH: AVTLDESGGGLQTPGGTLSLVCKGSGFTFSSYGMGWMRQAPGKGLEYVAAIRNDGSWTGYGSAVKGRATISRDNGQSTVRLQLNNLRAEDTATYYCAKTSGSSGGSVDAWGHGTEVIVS VL: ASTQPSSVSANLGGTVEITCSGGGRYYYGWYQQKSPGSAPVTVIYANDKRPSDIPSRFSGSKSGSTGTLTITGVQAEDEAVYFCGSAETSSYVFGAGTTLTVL")
0.000837
